Below: a set of entries, each annotated with reported MFI.
ASSAYED TARGET: T1, human TMEM106B (human, UniProt Q9NUM4 2-274)
T1 construct: full-length, transiently expressed on HEK293 cells, or natively expressed on HeLa, U251 and A549 cells (the cell is named under assay); also the source of the Pepscan peptides; also called huTMEM106B; huTMEM
TEST DETAILS: FACS A549;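 further: flow cytometry of cells incubated on ice for 1 h with hybridoma supernatant or purified antibody at 10 µg/mL, dead propidium iodide-positive cells gated out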
OUTCOME MEASURE: MFI (MFI)

# BINDER, VALUE REPORTED
records = [
    ("TM-8 (antibody, V domains shown, mouse IgG (hybridoma)) VH: QIQLVQSGPELKKPGETVKISCKASGYTFTDYPMHWVKQAPGKGFKWMGVIYTDTGEPKYAEVFKGRFAFSLETSASTAYLQINNLKNEDTATYFCVRRLAYWGQGTLVTVSA VL: DIKMTQSPSSMYASLGERVTITCKASQDINSYLSWFQQKPGKSPKTLIFRANRLVDGVPSRFSGSGSGQDYSLTISSLEYEDMGIYYCLQYDEFPLTFGAGTKLEMK", 554),
    ("TM-9 (antibody, V domains shown) VH: EVQLVESGGDLVKPGGSLKLSCVASGFTFSGYGMSWVRQTPDKRLEWVATISSGSFYIYYPDSVKGRLTVSRDNAKNTLYLQMSSLKSEDTAIYYCARQNFYYGCEDYWGQGTTLTVSS VL: DIVMTQAAFSNPVTLGTSASISCRSSKSLLHSNGITYLYWYLQKPGQSPQLLIYQMSNLASGVPNRFSSSGSGTDFTLRISRVEAEDVGVYYCAQNLELPWTFGGGTKLEIK", 1990),
    ("TM-37 (antibody, V domains shown) VH: QVQLQQSGAELAKPGASVKLSCKASGYTFTSYWMHWVKQRPGQGLEWIGYVNPSSGYTKNNQKFKDKVTLTADKSSSTAYMQLSSLTYEDSAVYYCAREGGSISDWYFDVWGTGTTVTVSS VL: DIVMTQAAPSVPVTPGESVSISCRSSKSLLHSNGNTYSYWFLQRPGQSPQLLIYRMSNLASGVPDRFSGSGSGTAFTLRISRVEAEDVGVYYCMQHLEYPYTFGGGTKLEIK", 1040),
]

Where these numbers come from: patent US20200339680A1
